# experimental-parameters: 348.15 K; 101.33 kPa; Liquid; Vibrating tube method
experimental-readout: mass density (kg/m3)
Respond numerically; units are kg/m3 and should not be typed.

CCn1cc[n+](C)c1.O=C([O-])[C@@H]1CCCN1 [1-ethyl-3-methyl-1H-imidazolium L-prolinate]; 1123.79
CC[n+]1ccn(C)c1.N[C@@H](CO)C(=O)[O-] [3-ethyl-1-methyl-1H-imidazolium L-serinate]; 1162.9
CCn1cc[n+](C)c1.NCC(=O)[O-] [1-ethyl-3-methylimidazolium ammonioacetate]; 1123.2

Field: next molecule
### Prompt What value of mass density has been recorded for this entry: CCn1cc[n+](C)c1.C[C@H](N)C(=O)[O-] [1-ethyl-3-methylimidazolium L-alaninate]
### Response 1104.7

###

// viscosity lookup, one value per entry
# experimental-parameters: 293.15 K; 101.33 kPa; Liquid; Concentric cylinders viscometry
Enter your answer as a number in mPa·s; do not include the unit.

In the examples that follow, each entry is paired with its recorded viscosity.
CCn1cc[n+](C)c1.C[C@H](N)C(=O)[O-] [1-ethyl-3-methylimidazolium L-alaninate]; 235.36
CC[n+]1ccn(C)c1.N[C@@H](CO)C(=O)[O-] [3-ethyl-1-methyl-1H-imidazolium L-serinate]; 611.87
CCn1cc[n+](C)c1.NCC(=O)[O-] [1-ethyl-3-methylimidazolium ammonioacetate]; 80.37

Let us move to another entry and its viscosity.
### Prompt For the compound CCn1cc[n+](C)c1.O=C([O-])[C@@H]1CCCN1 [1-ethyl-3-methyl-1H-imidazolium L-prolinate] , what viscosity is on record?
### Response 626.95

###

# experimental-parameters: 313.15 K; 101.33 kPa; Liquid; Vibrating tube method
± gives the expanded uncertainty stated by the source.
experimental-readout: mass density
Mention the unit after the number when you answer.

Below, 3 molecules whose answers are already recorded.
CCn1cc[n+](C)c1.O=C([O-])[C@@H]1CCCN1 [1-ethyl-3-methyl-1H-imidazolium L-prolinate]; 1145.78 ± 2.5 kg/m3
CCn1cc[n+](C)c1.NCC(=O)[O-] [1-ethyl-3-methylimidazolium ammonioacetate]; 1145.3 ± 2.5 kg/m3
CC[n+]1ccn(C)c1.N[C@@H](CO)C(=O)[O-] [3-ethyl-1-methyl-1H-imidazolium L-serinate]; 1185.2 ± 2.7 kg/m3

Note: attention shifts to another entry.
### Prompt Reported mass density, molecule CCn1cc[n+](C)c1.C[C@H](N)C(=O)[O-] [1-ethyl-3-methylimidazolium L-alaninate] : ____
### Response 1126.6 ± 2.4 kg/m3

###

This listing pairs molecules with measured refractive index.
# experiment-description: refractive index (Na D-line) (dimensionless)
# experimental-parameters: 303.15 K; 101.33 kPa; Liquid; Standard Abbe refractometry
± gives the expanded uncertainty stated by the source.

CCn1cc[n+](C)c1.NCC(=O)[O-] [1-ethyl-3-methylimidazolium ammonioacetate]; 1.50313 ± 0.00068
CC[n+]1ccn(C)c1.N[C@@H](CO)C(=O)[O-] [3-ethyl-1-methyl-1H-imidazolium L-serinate]; 1.50932 ± 0.00068
CCn1cc[n+](C)c1.C[C@H](N)C(=O)[O-] [1-ethyl-3-methylimidazolium L-alaninate]; 1.50246 ± 0.00068

Field: next molecule
### Prompt Find the recorded refractive index belonging to CCn1cc[n+](C)c1.O=C([O-])[C@@H]1CCCN1 [1-ethyl-3-methyl-1H-imidazolium L-prolinate] and report it.
### Response 1.51229 ± 0.00068

Reference source: the NIST ThermoML archive (doi:10.1021/je2002368)
